Where these numbers come from: patent US8252931B2

target: recombinant GST-GK (Homo sapiens); assay: activation of recombinant GST-GK in vitro (primary enzyme assay); format: biochemical; conditions: concentration of compound that produces a 50% increase in the activity of GK; read-out: EC50 in primary enzyme assay
Sequence (P35557 whole entry): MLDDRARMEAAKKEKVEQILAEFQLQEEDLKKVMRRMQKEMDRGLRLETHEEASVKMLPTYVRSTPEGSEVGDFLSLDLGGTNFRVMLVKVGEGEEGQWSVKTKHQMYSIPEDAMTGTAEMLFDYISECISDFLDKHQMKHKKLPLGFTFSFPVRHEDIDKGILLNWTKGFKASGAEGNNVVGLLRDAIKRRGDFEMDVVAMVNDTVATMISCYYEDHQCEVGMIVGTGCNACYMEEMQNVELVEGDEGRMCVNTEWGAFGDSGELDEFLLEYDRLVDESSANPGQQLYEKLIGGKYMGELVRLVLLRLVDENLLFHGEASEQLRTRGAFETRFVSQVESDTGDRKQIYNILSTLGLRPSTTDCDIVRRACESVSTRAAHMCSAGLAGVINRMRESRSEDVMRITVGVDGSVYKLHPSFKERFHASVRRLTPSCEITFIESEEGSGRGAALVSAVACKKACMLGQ
MEASURE: EC50 (µM)

For orientation, consider the following solved cases.
Ask: I have this molecule here, COc1ccc2nc(NC(=O)C(CC3CCCC3)c3ccc(S(=O)(=O)N(CC(=O)O)Cc4ccco4)cc3)sc2n1 (stereo not shown) [Example 4-9] , and I need its recorded EC50.
Result: 2.4

Ask: I have this molecule here, COc1ccc2nc(NC(=O)[C@H](CC3CCCC3)c3ccc(S(=O)(=O)N(CCC(=O)O)Cc4ccccc4)cc3)sc2n1 [Example 1] , and I need its recorded EC50.
Result: 0.27

Ask: I have this molecule here, COCCN(CCC(=O)O)S(=O)(=O)c1ccc(C(CC2CCCC2)C(=O)Nc2nc3cccnc3s2)cc1 (stereo not shown) [Example 4-41] , and I need its recorded EC50.
Result: 1.2

a = COCCN(CCC(=O)O)S(=O)(=O)c1ccc(C(CC2CCCC2)C(=O)Nc2nncs2)cc1 (stereo not shown) [Example 2]
b = COCCOc1ccc2nc(NC(=O)[C@H](CC3CCCC3)c3ccc(S(=O)(=O)N(CCOC)CCC(=O)O)cc3)sc2n1 [Example 4-46]
Ask: Pick one: a or b . Which has the bigger EC50 number? Answer by stating the label of the chosen item.
Result: a
